molecular target: T1, human CD8αα homodimer, recombinant protein (Acro Biosystems) (human, UniProt P01732 22-182); test: BLI, whole antibody, steady state dissociation constant (column head x10^-9M)
T1 construct: also called CD8αα antigen; biotinylated CD8α recombinant protein (CDA-H82E3)
T1 sequence (P01732 22-182 limits assumed): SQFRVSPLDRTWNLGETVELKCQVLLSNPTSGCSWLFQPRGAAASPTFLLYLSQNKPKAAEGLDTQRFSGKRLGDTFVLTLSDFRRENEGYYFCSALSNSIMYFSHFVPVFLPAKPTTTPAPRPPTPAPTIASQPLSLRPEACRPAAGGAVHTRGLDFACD
metric.name: Kd (nM)
// units = nM; emit number, no label

binder | value.unit | Kd
CBD1383 whole antibody (VH N55D of CBD1033, deamidation mimic), Fc-silenced human IgG1 (antibody, V domains shown, also called 100% deamidation mimic) VH: QVQLVQSGAEVKKPGASVKVSCKASRYTFTDYNLHWVRQAPGQGLEWMGFIYPYDGGTGYAQKFQGRVTMTVDTSTSTAYMELSSLRSEDTAVYYCARDHRYNEGVSFDYWGQGTTVTVSS VL: DIQLTQSPSSLSASVGDRATITCRASESVDGFGNSFMNWYQQKPGKAPKLLIYLASNLESGVPSRFSGSGSGTDFTLTISSVQPEDFATYYCQQNNEDPYTFGQGTKLEIKR | nM | 7.94
CBD1033 whole antibody, human IgG1 with Fc-silencing mutations L234A, L235A and P329A (CBD1033-hIgG1-LALAPA) (antibody, V domains shown, On tLNPs the antibody was SATA-modified or AJICAP-thiolated (CBD1033.29) and conjugated to the LNP; also called CBD1033.3; CBD1033 IgG1) VH: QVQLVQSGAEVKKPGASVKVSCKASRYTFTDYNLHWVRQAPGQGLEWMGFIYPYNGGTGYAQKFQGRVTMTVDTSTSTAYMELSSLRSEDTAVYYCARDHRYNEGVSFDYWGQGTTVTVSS VL: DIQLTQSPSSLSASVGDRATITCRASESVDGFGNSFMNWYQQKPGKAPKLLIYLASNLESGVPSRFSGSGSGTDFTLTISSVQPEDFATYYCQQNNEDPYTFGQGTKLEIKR | nM | 1.43
CBD1380 whole antibody (VH N55S of CBD1033), Fc-silenced human IgG1 (antibody, V domains shown) VH: QVQLVQSGAEVKKPGASVKVSCKASRYTFTDYNLHWVRQAPGQGLEWMGFIYPYSGGTGYAQKFQGRVTMTVDTSTSTAYMELSSLRSEDTAVYYCARDHRYNEGVSFDYWGQGTTVTVSS VL: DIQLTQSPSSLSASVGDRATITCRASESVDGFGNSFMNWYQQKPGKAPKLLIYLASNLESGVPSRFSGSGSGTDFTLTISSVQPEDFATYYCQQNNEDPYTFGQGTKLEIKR | nM | 0.76
CBD1382 whole antibody (VH N55A of CBD1033), Fc-silenced human IgG1 (antibody, V domains shown) VH: QVQLVQSGAEVKKPGASVKVSCKASRYTFTDYNLHWVRQAPGQGLEWMGFIYPYAGGTGYAQKFQGRVTMTVDTSTSTAYMELSSLRSEDTAVYYCARDHRYNEGVSFDYWGQGTTVTVSS VL: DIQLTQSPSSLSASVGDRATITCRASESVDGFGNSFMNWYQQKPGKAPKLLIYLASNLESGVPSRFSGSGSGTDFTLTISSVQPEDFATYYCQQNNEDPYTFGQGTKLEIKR | nM | 0.88

Kindly consider the entry below.
Annotate the binder CBD1381 whole antibody (VH N55Q of CBD1033), Fc-silenced human IgG1 (antibody, V domains shown) VH: QVQLVQSGAEVKKPGASVKVSCKASRYTFTDYNLHWVRQAPGQGLEWMGFIYPYQGGTGYAQKFQGRVTMTVDTSTSTAYMELSSLRSEDTAVYYCARDHRYNEGVSFDYWGQGTTVTVSS VL: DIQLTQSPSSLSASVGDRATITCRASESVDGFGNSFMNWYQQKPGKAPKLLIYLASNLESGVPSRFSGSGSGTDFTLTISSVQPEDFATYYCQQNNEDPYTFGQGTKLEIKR with its measured Kd.
0.5
